tested on: Escherichia coli TOP10; test: shrunken log2 fold change of peptide-encoding DNA abundance (4.5 h post-induction vs induction); higher = less antimicrobial activity (less host growth inhibition); settings: time post-induction: 4.5 h; library: site-saturation at positions 5, 18, 19, 20
Entries annotated with measured shrunken log2 fold change
Lab note: jot the number down without any unit.

Worked cases, answers included:
# residueString, shrunken log2 fold change
measured = [
    ("RRIRIRPPRLPRPRPRPDSVPRP", 0.0234),
    ("RRIRSRPPRLPRPRPRPQKCPRP", 0.0984),
    ("RRIRSRPPRLPRPRPRPMVCPRP", 0.188),
]

# shrunken log2 fold change lookup, item RRIRARPPRLPRPRPRPRYGPRP
-0.0744

Could you share which shrunken log2 fold change value was measured for RRIRNRPPRLPRPRPRPKQQPRP ?
0.163

Look at this sequence and give its reported shrunken log2 fold change. RRIRARPPRLPRPRPRPWWGPRP
3.62

Entry RRIRPRPPRLPRPRPRPSYVPRP : reported shrunken log2 fold change = ?
-0.127

# query: shrunken log2 fold change of entry RRIRARPPRLPRPRPRPKFSPRP
0.173

Which shrunken log2 fold change is reported for this sequence? RRIRPRPPRLPRPRPRPPDWPRP
0.577

// lookup shrunken log2 fold change for RRIRCRPPRLPRPRPRPMQPPRP
0.462

---

system: Escherichia coli TOP10; assay: shrunken log2 fold change of peptide-encoding DNA abundance (4.5 h post-induction vs induction); higher = less antimicrobial activity (less host growth inhibition); conditions: time post-induction: 4.5 h; library: site-saturation at positions 5, 18, 19, 20
Reported values of shrunken log2 fold change for individual entries
Keep the answer to the number alone.

# example entries with known answers
# residueString, shrunken log2 fold change
measured = [
    ("RRIRLRPPRLPRPRPRPLIWPRP", 0.0251),
    ("RRIRSRPPRLPRPRPRPWKIPRP", -0.0842),
    ("RRIRKRPPRLPRPRPRPNACPRP", 0.0357),
    ("RRIRQRPPRLPRPRPRPRGYPRP", -0.00234),
    ("RRIRDRPPRLPRPRPRPHEAPRP", 0.151),
    ("RRIRRRPPRLPRPRPRPQQCPRP", 0.15),
    ("RRIRFRPPRLPRPRPRPNMNPRP", -0.953),
    ("RRIRMRPPRLPRPRPRPLFKPRP", -0.0689),
]

Here's the next entry for you.
State the recorded shrunken log2 fold change for this entry: RRIRFRPPRLPRPRPRPLRDPRP
0.717

---

test system: Escherichia coli TOP10; experiment: shrunken log2 fold change of peptide-encoding DNA abundance (4.5 h post-induction vs induction); higher = less antimicrobial activity (less host growth inhibition); conditions: time post-induction: 4.5 h; library: site-saturation at positions 5, 18, 19, 20;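 note: peptides expressed intracellularly from a pBAD plasmid library in pooled LB shake-flask culture, induced with 0.3% L-arabinose, DNA abundance read by NGS, three biological replicates, DESeq2 with apeglm shrinkage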
Rule: shrunken log2 fold change of 0.1 or more gives TRUE; anything lower gives FALSE.

# example entries with known answers
# residueString, assignedCategory
measured = [
    ("RRIRHRPPRLPRPRPRPKFTPRP", "FALSE"),
    ("RRIRPRPPRLPRPRPRPRYVPRP", "FALSE"),
    ("RRIRLRPPRLPRPRPRPWLSPRP", "FALSE"),
    ("RRIRGRPPRLPRPRPRPDVPPRP", "FALSE"),
    ("RRIRARPPRLPRPRPRPCSYPRP", "FALSE"),
    ("RRIRWRPPRLPRPRPRPGVPPRP", "TRUE"),
]

In plain terms: is recorded shrunken log2 fold change at least 0.1 for RRIRCRPPRLPRPRPRPPTPPRP ?
TRUE

Dear colleague, could you confirm whether RRIRFRPPRLPRPRPRPDQLPRP has shrunken log2 fold change at or above 0.1?
TRUE

Dear colleague, could you confirm whether RRIRVRPPRLPRPRPRPTCMPRP has shrunken log2 fold change at or above 0.1?
FALSE

Decide: shrunken log2 fold change of RRIRWRPPRLPRPRPRPVSMPRP >= 0.1?
FALSE

Where do these numbers come from? They come from the supplement of paper PMC9112550.
